Measurement Target: biotinylated human IL-17A / AF647-labeled human IL-17RA (Homo sapiens)
Sequence (Q16552 24-155): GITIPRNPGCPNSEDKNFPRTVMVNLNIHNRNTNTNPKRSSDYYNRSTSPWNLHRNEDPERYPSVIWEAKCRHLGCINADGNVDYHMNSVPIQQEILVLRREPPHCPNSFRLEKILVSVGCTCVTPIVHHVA
Method: Human IL-17A×IL-17RA TR-FRET assay
Type: binding
Experimental Parameters: TR-FRET, 5 nM IL-17A, 30 nM IL-17RA; read-out: IL17AA FRET/ IL17Rawt IC50
pIC50: −log10 of the molar value.
Metric Name: pIC50

Please review the following examples before continuing.
> print(dat)
                                   molecule  experimental.result
1  Cc1cc[n+]([O-])c(C)c1-c1ccc(NC(=O)[C@@H](NC(=O)c2conc2CO)C2CCC(F)(F)CC2)cc1                 5.94
2  Cc1cc[n+]([O-])c(C)c1-c1ccc(NC(=O)[C@@H](NC(=O)c2ccc3n2CCN(C)C3)C2CCCCCC2)nc1                 6.93

(A) Cc1cc[n+]([O-])c(C)c1-c1ccc(NC(=O)[C@@H](NC(=O)c2ccc3n2CCN(C)C3)[C@H]2CCCC(F)(F)C2)cc1
(B) CC(=O)N1CCn2c(ccc2C(=O)N[C@H](C(=O)Nc2ccc(-c3c(Cl)cc[n+]([O-])c3C)c(F)c2)C2CCCCC2)C1
(C) Cc1cc[n+]([O-])c(C)c1-c1ccc(NC(=O)[C@@H](NC(=O)c2conc2C)C2CCC(F)(F)CC2)cc1
Order each entry by recorded pIC50, climbing from the minimum. Show the ranking through the labels, in the order asked for.
A, C, B

(P) Cc1cc[n+]([O-])c(C)c1-c1ccc(NC(=O)C(NC(=O)c2ccc3n2CCN(C)C3)C2CC3CC3C2)cc1 (single isomer, unassigned) [Example 150]
(Q) COCc1nocc1C(=O)N[C@H](C(=O)Nc1ccc(-c2c(Cl)cc[n+]([O-])c2C)c(F)c1)C1CCC(F)(F)CC1
Input pair: P , Q . Output: entry with lower pIC50. Please respond with the label that marks your chosen entry.
P
(P: 6.33, Q: 6.72)

(a) CC(=O)N1CCn2c(ccc2C(=O)N[C@H](C(=O)Nc2ccc(-c3c(C)cc[n+]([O-])c3C)cc2)C2CCCCCC2)C1
(b) Cc1cc[n+]([O-])c(C)c1-c1ccc(NC(=O)[C@@H](NC(=O)c2ccc3n2CCN(C)C3)C2CCC(F)CC2)cc1 (some centres unmarked)
Looking only at measured pIC50, which entry is lower, a or b ? # respond with the chosen item's label
b

(I) Cc1c(-c2ccc(NC(=O)C(NC(=O)c3ccnn3C)C3CC4CC4C3)cc2)c(Cl)cc[n+]1[O-] (centres unmarked)
(II) Cc1cc[n+]([O-])c(C)c1-c1ccc(NC(=O)[C@@H](NC(=O)c2ccc3n2CCNC3)C2CCC(F)CC2)cc1 (some centres unmarked)
(III) Cc1cc[n+]([O-])c(C)c1-c1ccc(NC(=O)[C@@H](NC(=O)c2ccnn2C)C2CCCCCC2)nc1
List these items ordered by pIC50, big to small. Labels, ranked as asked.
I, III, II
(I: 7.17, III: 6.90, II: 6.61)

(P) Cc1cc[n+]([O-])c(C)c1-c1ccc(NC(=O)[C@@H](NC(=O)c2ccnn2C)[C@H]2CCC[C@H](F)CC2)cc1
(Q) CC(=O)N1CCn2ccc(C(=O)N[C@H](C(=O)Nc3ccc(-c4c(C)cc[n+]([O-])c4C)cc3)C3CCCCCC3)c2C1
(R) Cc1cc[n+]([O-])c(C)c1-c1ccc(NC(=O)[C@@H](NC(=O)c2ccnn2C)[C@H]2CCC[C@@H](F)CC2)cc1
(S) CCn1nccc1C(=O)NC(C(=O)Nc1ccc(-c2c(Cl)cc[n+]([O-])c2C)cc1)C1CC2CC2C1 (single isomer, unassigned) [Example 145]
List by increasing pIC50. Enter labels, ranked according to the request.
R, P, Q, S
(R: 6.12, P: 6.67, Q: 7.11, S: 7.62)

(P) CC(=O)N1CCn2c(ccc2C(=O)NC(C(=O)Nc2ccc(-c3c(Cl)cc[n+]([O-])c3C)c(F)c2)[C@H]2C[C@@H]3C[C@@H]3C2)C1 (some centres unmarked)
(Q) Cc1cc[n+]([O-])c(C)c1-c1ccc(NC(=O)[C@@H](NC(=O)c2ccc3n2CCN(C)C3)C2CCCC2)cc1
(R) Cc1c(-c2ccc(NC(=O)C(NC(=O)c3ccc4n3CCN(C)C4)[C@@H]3C[C@@H]4[C@H](C3)C4(F)F)cc2)c(Cl)cc[n+]1[O-] (some centres unmarked)
(S) Cc1cc[n+]([O-])c(C)c1-c1ccc(NC(=O)C(NC(=O)c2ccc3n2CCNC3)C2CCC(C(F)(F)F)CC2)cc1 (centres unmarked)
Hello, I need these entries ordered by pIC50, highest reading first. Thanks! Form field (ranking): labels in requested order.
S, P, R, Q

(a) CC(=O)N1CCn2c(ccc2C(=O)N[C@H](C(=O)Nc2ccc(-c3c(Cl)cc[n+]([O-])c3C)cc2)C2CCCCC2)C1
(b) Cc1c(-c2ccc(NC(=O)[C@@H](NC(=O)c3ccnn3C)C3CCCCC3)cc2)c(C(C)C)cc[n+]1[O-]
(c) Cc1cc[n+]([O-])c(C)c1-c1ccc(NC(=O)C(NC(=O)c2ccnn2C)C2CCCCC(F)(F)C2)cc1 (centres unmarked)
Please order the records by their reported pIC50, lowest number first. Write the labels in rank order as requested.
b, a, c

(a) Cc1cc[n+]([O-])c(C)c1-c1ccc(NC(=O)C(NC(=O)c2ccc3n2CCN(C)C3)C(C)c2ccccc2Cl)cc1 (centres unmarked)
(b) Cc1c(-c2ccc(NC(=O)C(NC(=O)c3ccc4n3CCNC4)C3CCCc4ccccc43)cc2F)c(Cl)cc[n+]1[O-] (centres unmarked)
Out of a and b , name the one with the higher pIC50. Kindly state the label of the option you pick.
b
